Reported reverse-splicing fitness values are given for each entry in this list.
B1: Azoarcus group I ribozyme (parent)
chain: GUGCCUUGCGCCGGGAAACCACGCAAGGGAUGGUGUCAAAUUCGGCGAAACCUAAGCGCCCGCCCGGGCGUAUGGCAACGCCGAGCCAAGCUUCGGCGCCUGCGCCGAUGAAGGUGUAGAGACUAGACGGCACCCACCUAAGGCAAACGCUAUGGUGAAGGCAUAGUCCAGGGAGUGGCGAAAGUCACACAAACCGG

variants of: B1; assay: reverse-splicing fitness (ratio to wild type); higher = more active; in vitro selection; Mg2+ level not given
Lab note: jot the number down without any unit.

Use these answered entries as a reference point.
mutant_label	reverse-splicing fitness
C82U A111U A120G A145G C150A U176C	0.0166
C82U A111C A120C A145U U176A	0.0118
C82A A120U C169G	0.00529
C82A A111C A120G C150U C169A U176C	0.0139

Reported reverse-splicing fitness for C82A A111G A145C C150U C169A U176G was 0.00703

Sample C82U A111C A120C C150U C169G U176A ; reverse-splicing fitness observed: 0.0121

response.value for C82U A111U A120G C150G C169U U176C (field: reverse-splicing fitness) = 0.0119

Query A145G C150A C169U U176A yields reverse-splicing fitness of 0.0484

Looking up C82U A111U A120G A145G C150A C169A U176G , I see its reverse-splicing fitness listed as 0.00564

So, C82U A111C A120U A145C C150A C169A U176C ? Its reverse-splicing fitness was 0.00295

// A111C A120U A145U C169G U176G : reverse-splicing fitness value = 0.00209

response.value for C82G A111C A120G A145U C150A C169A (field: reverse-splicing fitness) = 0.00884

Briefly, reverse-splicing fitness measured for C82A A120G A145G C169G U176C : 0.032

The variant A111C A145G C169U showed reverse-splicing fitness equal to 0.126

Input A111U A120U A145C C150G C169A U176A . Output reverse-splicing fitness: 0.00234

The recorded reverse-splicing fitness for C82A A111C A120G A145C C150U C169A U176G is 0.00632

Note to self: reverse-splicing fitness recorded for C82A A120G A145G C150U U176A was 0.0104

Input A111C A120C A145U C150G U176G . Output reverse-splicing fitness: 0.00607

# reverse-splicing fitness of C82G A111C A145C C150G C169A U176A = 0.00825

Lookup result for A111U A145U C150G C169A U176G ; measured reverse-splicing fitness: 0.00591

The origin of these recorded values is the RNAGym collection of RNA variant scans (doi:10.1093/molbev/msab373).
